# Tested on: UO-31 renal
# Protocol notes: NCI tumour cell line growth inhibition, 48 h
Measured endpoint: TGI

Some entries whose results are on file:
Nc1nnnn1CCO = > 100 µM
CC1CCCC(C(O)CC2CC(=O)NC(=O)C2)C1O (stereo unspecified) = > 100 µM
Oc1ccc(-c2nc3ccccc3s2)cc1CN(Cc1ccccn1)Cc1ccccn1 = 2.49 µM
O=C(Nc1ccncc1)C(=O)c1cn(S(=O)(=O)c2ccc(Cl)cc2)c2ccccc12 = > 100 µM
COc1cc(C(=O)N2CCN(c3ncnc4ccccc34)CC2)c(N)cc1OCc1ccccc1 = 26.5 µM

Query string: Check the records and state TGI for O=C(O)CCC(N=Cc1nc(-c2ccccc2)oc1O)C(=O)O (stereo unspecified)
Result string: > 100 µM

Query string: Check the records and state TGI for Nc1c(C(=O)Nc2cccc(F)c2)sc2nc3c(cc12)C(=O)CCC3
Result string: > 100 µM

Query string: Check the records and state TGI for Fc1ccc2c(c1)c(-c1nc(-c3c[nH]c4ncccc34)cs1)cn2CCCCN1CCCCC1
Result string: 2.57 µM
